- Tested on: Rattus norvegicus
- ASSAY: Antihypertensive activity determined as percent fall in blood pressure after 2 hr in spontaneously hypertensive rats administered with 10 mg/kg (po)
- Type: functional
Entries and their measured Activity follow.
MEASURED ENDPOINT: Activity (%)

1) COc1cc2nc(N(C)CCCNC(=O)C3Cc4ccccc4O3)nc(N)c2cc1OC.Cl (stereo not given)
-22
2) COc1cc2nc(N3CCN(C(=O)c4ccco4)CC3)nc(N)c2cc1OC.Cl [PRAZOSIN HYDROCHLORIDE]
-37
3) COc1cc2nc(NCCCNC(=O)c3ccccc3)nc(N)c2cc1OC.Cl
-9
4) COc1cc2nc(N(C)CCCNC(=O)C3COc4ccccc4O3)nc(N)c2cc1OC.Cl (stereo not given)
2
5) COc1cc2nc(N(C)CCCN(C)C(=O)c3cccc(C)c3)nc(N)c2cc1OC.Cl
-10
6) COc1cc2nc(N(C)CCCN(C)C(=O)c3ccco3)nc(N)c2cc1OC.Cl
-24
7) CCN(CCCN(CC)c1nc(N)c2cc(OC)c(OC)cc2n1)C(=O)c1ccco1.Cl
-16
8) COc1cc2nc(N(C)CCCNC(=O)C3CC3)nc(N)c2cc1OC.Cl
-19
9) COc1cc2nc(N(C)CCCNC(=O)C3CCOCC3)nc(N)c2cc1OC
-27
10) COc1cc2nc(N(C)CCCN(C)C(=O)C3CCCO3)nc(N)c2cc1OC.Cl (stereo not given)
-14
11) COc1cc2nc(N(C)CCCNC(=O)C3CCCO3)nc(N)c2cc1OC.Cl (stereo not given) [ALFUZOSIN HYDROCHLORIDE]
-34
12) COc1cc2nc(N(C)CCCN(CC(C)C)C(=O)c3ccccc3)nc(N)c2cc1OC.Cl
0
13) COc1cc2nc(N(C)CCCNC(=O)C3CCOC3)nc(N)c2cc1OC.Cl (stereo not given)
-24
14) COc1cc2nc(N(C)CCCNC(=O)c3ccccc3)nc(N)c2cc1OC.Cl
-31
15) COc1cc2nc(N(C)CCCNC(=O)/C=C/c3ccccc3)nc(N)c2cc1OC.Cl
0
16) COc1cc2nc(N(C)CCCN(C)C(=O)c3cccnc3)nc(N)c2cc1OC.Cl
-5
17) COc1cc2nc(N(C)CCCNC(=O)c3ccco3)nc(N)c2cc1OC.Cl
-20
18) CCN(CCCN(C)C(=O)c1ccccc1)c1nc(N)c2cc(OC)c(OC)cc2n1.Cl
-16
19) COc1cc2nc(N(C)CCCNC(=O)c3cc4ccccc4o3)nc(N)c2cc1OC.Cl
0
20) COc1cc2nc(N(C)CCCNC(=O)C3CCCC3)nc(N)c2cc1OC.Cl
-30

----------
- Tested on: Rattus norvegicus
- ASSAY: Antihypertensive activity determined as percent fall in blood pressure after 2 hr in spontaneously hypertensive rats administered with 10 mg/kg (po)
- Type: functional
Entries and their measured Activity follow.
MEASURED ENDPOINT: Activity (%)

1) COc1cc2nc(N(C)CCCN(C)C(=O)c3ccccc3)nc(N)c2cc1OC.Cl
-23
2) COc1cc2nc(N(C)CCCCN(C)C(=O)c3ccccc3)nc(N)c2cc1OC.Cl
-21
3) COc1cc2nc(N(C)CCN(C)C(=O)c3ccccc3)nc(N)c2cc1OC
0
4) CCN(CCCN(CC)c1nc(N)c2cc(OC)c(OC)cc2n1)C(=O)c1ccccc1.Cl
-1
5) COc1cc2nc(N(C)CCCN(C)C(=O)c3nnc(SC)o3)nc(N)c2cc1OC.Cl
-20
